Target: αvβ5 (Homo sapiens, UniProt P06756+P18084)
Construct: expressed in transfected cells; host or cells: K562
Sequence (P18084 24-799, one chain of several): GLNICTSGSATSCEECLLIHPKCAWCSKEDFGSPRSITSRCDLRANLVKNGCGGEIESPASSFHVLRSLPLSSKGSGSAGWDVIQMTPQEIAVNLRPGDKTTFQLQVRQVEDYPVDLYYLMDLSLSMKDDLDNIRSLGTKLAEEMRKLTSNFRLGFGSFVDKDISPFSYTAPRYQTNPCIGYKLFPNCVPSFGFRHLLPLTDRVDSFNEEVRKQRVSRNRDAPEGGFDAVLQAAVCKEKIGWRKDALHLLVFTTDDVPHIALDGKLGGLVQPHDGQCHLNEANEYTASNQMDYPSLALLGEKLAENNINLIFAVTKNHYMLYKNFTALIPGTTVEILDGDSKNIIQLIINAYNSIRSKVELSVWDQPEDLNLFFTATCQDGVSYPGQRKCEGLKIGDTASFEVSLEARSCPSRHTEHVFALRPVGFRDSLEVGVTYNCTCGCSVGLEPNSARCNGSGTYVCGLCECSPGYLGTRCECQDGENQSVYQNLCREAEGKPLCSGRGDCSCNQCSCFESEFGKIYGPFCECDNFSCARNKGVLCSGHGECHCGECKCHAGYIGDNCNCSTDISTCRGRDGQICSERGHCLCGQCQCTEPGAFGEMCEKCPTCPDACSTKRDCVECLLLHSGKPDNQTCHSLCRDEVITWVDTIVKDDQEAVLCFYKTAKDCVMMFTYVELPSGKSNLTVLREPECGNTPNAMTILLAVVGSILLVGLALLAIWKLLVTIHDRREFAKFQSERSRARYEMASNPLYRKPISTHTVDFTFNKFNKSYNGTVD
Assay: Cell adhesion assay, K562-αvβ5 (Vitronectin)
Format: cell-based
Settings: K562-αvβ5 cells, ligand Vitronectin, 2 mM MgCl2; mean; read-out: αvβ5 pIC50 (mean affinity, cell Adhesion Assay) (converted)
Experimental: Reagents and methods utilised are as described [Ludbrook et al, Biochem. J. 2003, 369, 311 and Macdonald et al. ACS Med. Chem. Lett. 2014, 5, 1207-1212 for αvβ8 assay), with the following points of clarification. […] Adhesion is quantified by cell labelling with the fluorescent dye BCECF-AM (Life Technologies), where cell suspensions at 3×10^6 cells/mL are incubated with 0.33 uL/mL of 30 mM BCECF-AM at 37° C. for 10 minutes, then 50 μL/well are dispensed into the 96-well assay plate. […]
Reported Metric: IC50
Returns: string containing the numeric result and its unit.

Problem: // fetch IC50 given entry O=C(O)C[C@H](CN1CC[C@@](F)(CCc2ccc3c(n2)NCCC3)C1)c1cccc(O[C@H]2CCOC2)c1 [Example 4]
Result: 79.4 nM

Problem: // fetch IC50 given entry O=C(O)C[C@H](CN1CC[C@@](F)(CCc2ccc3c(n2)NCCC3)C1)c1cccc(OC[C@H]2CCCO2)c1 [Example 1]
Result: 251 nM

Problem: // fetch IC50 given entry CO[C@H](C)COc1cccc([C@H](CC(=O)O)CN2CC[C@@](F)(CCc3ccc4c(n3)NCCC4)C2)c1 [Example 5]
Result: 25.1 nM

Problem: // fetch IC50 given entry O=C(O)C[C@H](CN1CC[C@@](F)(CCc2ccc3c(n2)NCCC3)C1)c1cccc(OCC2COC2)c1 [Example 12]
Result: 31.6 nM

Problem: // fetch IC50 given entry O=C(O)C[C@H](CN1CC[C@@](F)(CCc2ccc3c(n2)NCCC3)C1)c1cccc(O[C@@H]2CCOC2)c1 [Example 3]
Result: 39.8 nM

Problem: // fetch IC50 given entry COCC(C)(C)Oc1cccc([C@H](CC(=O)O)CN2CC[C@@](F)(CCc3ccc4c(n3)NCCC4)C2)c1 [Example 7]
Result: 63.1 nM

Problem: // fetch IC50 given entry CO[C@@H](C)COc1cccc([C@H](CC(=O)O)CN2CC[C@@](F)(CCc3ccc4c(n3)NCCC4)C2)c1 [Example 6]
Result: 316 nM

Problem: // fetch IC50 given entry O=C(O)C[C@H](CN1CC[C@@](F)(CCc2ccc3c(n2)NCCC3)C1)c1cccc(OC2CCOCC2)c1 [Example 15]
Result: 39.8 nM

Problem: // fetch IC50 given entry COCCOc1cc(OCCF)cc(C(CC(=O)O)CN2CC[C@@](F)(CCc3ccc4c(n3)NCCC4)C2)c1 (some centres unmarked) [Example 13]
Result: 100 nM

Problem: // fetch IC50 given entry O=C(O)C[C@H](CN1CC[C@@](F)(CCc2ccc3c(n2)NCCC3)C1)c1cccc(C2CCOC2)c1 (single isomer, unassigned; isomer 1) [Example 10]
Result: 79.4 nM

Problem: // fetch IC50 given entry O=C(O)C[C@H](CN1CC[C@@](F)(CCc2ccc3c(n2)NCCC3)C1)c1cccc(OC[C@@H]2CCCO2)c1 [Example 2]
Result: 100 nM

Problem: // fetch IC50 given entry COCCOc1ccc(F)c(C(CC(=O)O)CN2CC[C@@](F)(CCc3ccc4c(n3)NCCC4)C2)c1 (some centres unmarked) [Example 14]
Result: 25.1 nM

Problem: // fetch IC50 given entry O=C(O)C[C@H](CN1CC[C@@](F)(CCc2ccc3c(n2)NCCC3)C1)c1cccc(OC2COC2)c1 [Example 8]
Result: 63.1 nM

Problem: // fetch IC50 given entry O=C(O)C[C@H](CN1CC[C@@](F)(CCc2ccc3c(n2)NCCC3)C1)c1cccc(C2CCOC2)c1 (single isomer, unassigned; isomer 2) [Example 11]
Result: 126 nM

---

target: αvβ6 (Homo sapiens, UniProt P06756+P18564); construct: expressed in transfected cells; host or cells: K562; test: Cell adhesion assay, K562-αvβ6 (LAP-b1); type: cell-based; conditions: K562-αvβ6 cells, ligand LAP-b1, 2 mM MgCl2; mean; read-out: αvβ6 pIC50 (mean affinity, cell Adhesion Assay) (converted)
Sequence (P06756 31-889 limits assumed): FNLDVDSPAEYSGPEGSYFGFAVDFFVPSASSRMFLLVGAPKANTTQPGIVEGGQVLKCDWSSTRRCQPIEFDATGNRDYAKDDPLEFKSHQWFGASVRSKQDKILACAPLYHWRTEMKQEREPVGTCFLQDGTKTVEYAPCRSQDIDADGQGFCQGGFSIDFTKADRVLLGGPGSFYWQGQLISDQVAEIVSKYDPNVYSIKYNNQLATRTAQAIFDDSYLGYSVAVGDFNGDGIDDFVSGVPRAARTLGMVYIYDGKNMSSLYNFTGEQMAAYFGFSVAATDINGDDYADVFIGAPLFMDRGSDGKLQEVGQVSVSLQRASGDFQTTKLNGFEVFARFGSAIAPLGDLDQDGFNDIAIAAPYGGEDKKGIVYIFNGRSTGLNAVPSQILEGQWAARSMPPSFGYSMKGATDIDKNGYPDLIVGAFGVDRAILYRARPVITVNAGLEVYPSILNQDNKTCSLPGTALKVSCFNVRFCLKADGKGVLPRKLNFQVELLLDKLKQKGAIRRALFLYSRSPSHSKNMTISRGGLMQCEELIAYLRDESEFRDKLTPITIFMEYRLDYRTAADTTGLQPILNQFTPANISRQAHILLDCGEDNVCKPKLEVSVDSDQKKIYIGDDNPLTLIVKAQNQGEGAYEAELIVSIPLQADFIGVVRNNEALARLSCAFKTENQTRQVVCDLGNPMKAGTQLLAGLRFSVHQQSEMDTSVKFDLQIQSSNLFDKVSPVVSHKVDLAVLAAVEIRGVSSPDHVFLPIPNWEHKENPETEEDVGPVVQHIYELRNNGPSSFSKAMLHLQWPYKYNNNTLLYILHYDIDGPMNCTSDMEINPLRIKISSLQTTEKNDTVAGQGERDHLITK
Sequence (P06756 891-1048 partner limits assumed): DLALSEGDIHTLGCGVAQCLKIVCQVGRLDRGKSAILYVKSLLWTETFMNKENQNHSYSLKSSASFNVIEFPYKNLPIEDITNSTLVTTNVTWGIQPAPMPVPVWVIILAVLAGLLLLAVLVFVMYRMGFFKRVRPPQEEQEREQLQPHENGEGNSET
Sequence (P18564 22-788): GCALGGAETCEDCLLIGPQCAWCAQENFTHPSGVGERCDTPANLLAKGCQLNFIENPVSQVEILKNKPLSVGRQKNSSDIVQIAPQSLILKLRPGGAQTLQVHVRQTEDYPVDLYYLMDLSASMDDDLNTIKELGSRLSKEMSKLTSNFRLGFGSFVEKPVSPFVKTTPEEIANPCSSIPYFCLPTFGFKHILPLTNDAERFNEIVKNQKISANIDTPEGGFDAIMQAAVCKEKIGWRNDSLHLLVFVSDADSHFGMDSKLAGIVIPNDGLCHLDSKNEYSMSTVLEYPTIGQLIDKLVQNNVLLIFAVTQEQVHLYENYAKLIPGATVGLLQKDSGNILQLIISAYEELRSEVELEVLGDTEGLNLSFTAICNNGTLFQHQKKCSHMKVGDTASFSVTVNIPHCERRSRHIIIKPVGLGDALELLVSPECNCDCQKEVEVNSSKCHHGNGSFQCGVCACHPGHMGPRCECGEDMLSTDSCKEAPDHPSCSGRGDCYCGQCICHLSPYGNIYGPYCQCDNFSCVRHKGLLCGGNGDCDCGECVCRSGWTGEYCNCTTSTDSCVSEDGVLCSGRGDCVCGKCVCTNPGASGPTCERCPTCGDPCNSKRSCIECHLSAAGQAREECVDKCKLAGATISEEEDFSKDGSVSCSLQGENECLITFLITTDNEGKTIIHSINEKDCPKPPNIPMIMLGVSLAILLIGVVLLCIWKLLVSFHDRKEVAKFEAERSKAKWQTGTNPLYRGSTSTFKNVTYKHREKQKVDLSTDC
I'd appreciate it if you could supply IC50 values for the items below.

Problem: // fetch IC50 given entry COCCOc1cc(OCCF)cc(C(CC(=O)O)CN2CC[C@@](F)(CCc3ccc4c(n3)NCCC4)C2)c1 (stereo partly drawn)
Result: 10 nM

Problem: // fetch IC50 given entry `O=C(O)C[C@H](CN1CC[C@@](F)(CCc2ccc3c(n2)NCCC3)C1)c1cccc(O[C@@H]2CCOC2)c1`
Result: 5.01 nM

Problem: // fetch IC50 given entry `COCC(C)(C)Oc1cccc([C@H](CC(=O)O)CN2CC[C@@](F)(CCc3ccc4c(n3)NCCC4)C2)c1`
Result: 20 nM

---

I'd appreciate it if you could supply IC50 values for the items below.
target: αvβ1 (Homo sapiens, UniProt P05556+P06756); construct: host or cells: A549; assay: Cell adhesion assay, A549-αvβ1 (LAP-b1); assay type: cell-based; conditions: A549-αvβ1 cells, ligand LAP-b1, 2 mM MgCl2; mean; read-out: αvβ1 pIC50 (mean affinity, cell Adhesion Assay) (converted)
Sequence (P05556 21-798, one chain of several): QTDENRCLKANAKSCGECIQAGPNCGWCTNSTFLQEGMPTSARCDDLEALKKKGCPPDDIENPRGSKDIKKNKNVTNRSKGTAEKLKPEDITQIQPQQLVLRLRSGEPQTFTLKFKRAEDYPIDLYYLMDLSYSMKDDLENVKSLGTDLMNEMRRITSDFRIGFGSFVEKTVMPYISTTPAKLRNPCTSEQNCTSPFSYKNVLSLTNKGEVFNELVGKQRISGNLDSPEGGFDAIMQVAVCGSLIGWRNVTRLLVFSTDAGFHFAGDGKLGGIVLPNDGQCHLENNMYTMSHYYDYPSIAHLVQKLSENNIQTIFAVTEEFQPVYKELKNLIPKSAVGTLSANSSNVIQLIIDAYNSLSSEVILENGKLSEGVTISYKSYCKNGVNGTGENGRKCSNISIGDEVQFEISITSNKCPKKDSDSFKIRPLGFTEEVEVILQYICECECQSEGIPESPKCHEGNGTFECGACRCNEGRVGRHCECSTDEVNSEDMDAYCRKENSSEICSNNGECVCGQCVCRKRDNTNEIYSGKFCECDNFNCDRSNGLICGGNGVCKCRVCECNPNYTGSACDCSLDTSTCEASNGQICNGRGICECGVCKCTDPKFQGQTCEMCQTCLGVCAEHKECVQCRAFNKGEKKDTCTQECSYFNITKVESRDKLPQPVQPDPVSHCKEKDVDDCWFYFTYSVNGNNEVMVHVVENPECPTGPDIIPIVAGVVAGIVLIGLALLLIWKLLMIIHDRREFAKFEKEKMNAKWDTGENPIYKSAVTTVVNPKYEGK
Respond numerically; units are nM and should not be typed.

Problem: // fetch IC50 given entry `O=C(O)C[C@H](CN1CC[C@@](F)(CCc2ccc3c(n2)NCCC3)C1)c1cccc(OC[C@H]2CCCO2)c1`
Result: 2000

Problem: // fetch IC50 given entry `COCC(C)(C)Oc1cccc([C@H](CC(=O)O)CN2CC[C@@](F)(CCc3ccc4c(n3)NCCC4)C2)c1`
Result: 63.1

Problem: // fetch IC50 given entry `COCCOc1cc(OCCOC)cc([C@H](CC(=O)O)CN2CC[C@@](F)(CCc3ccc4c(n3)NCCC4)C2)c1`
Result: 1000

Problem: // fetch IC50 given entry `O=C(O)C[C@H](CN1CC[C@@](F)(CCc2ccc3c(n2)NCCC3)C1)c1cccc(OCC2COC2)c1`
Result: 251

Problem: // fetch IC50 given entry `O=C(O)C[C@H](CN1CC[C@@](F)(CCc2ccc3c(n2)NCCC3)C1)c1cccc(O[C@@H]2CCOC2)c1`
Result: 200

Problem: // fetch IC50 given entry `CO[C@@H](C)COc1cccc([C@H](CC(=O)O)CN2CC[C@@](F)(CCc3ccc4c(n3)NCCC4)C2)c1`
Result: 126

Problem: // fetch IC50 given entry `O=C(O)C[C@H](CN1CC[C@@](F)(CCc2ccc3c(n2)NCCC3)C1)c1cccc(OC[C@@H]2CCCO2)c1`
Result: 1000

---

I'd appreciate it if you could supply IC50 values for the items below.
molecular target: αvβ8 (Homo sapiens, UniProt P06756+P26012); construct: expressed in transfected cells; host or cells: K562; experiment: Cell adhesion assay, K562-αvβ8 (LAP-b1); assay type: cell-based; details: K562-αvβ8 cells, ligand LAP-b1, 2 mM MgCl2; mean; read-out: αvβ8 pIC50 (mean affinity, cell Adhesion Assay) (converted)
Sequence (P26012 43-769, one chain of several): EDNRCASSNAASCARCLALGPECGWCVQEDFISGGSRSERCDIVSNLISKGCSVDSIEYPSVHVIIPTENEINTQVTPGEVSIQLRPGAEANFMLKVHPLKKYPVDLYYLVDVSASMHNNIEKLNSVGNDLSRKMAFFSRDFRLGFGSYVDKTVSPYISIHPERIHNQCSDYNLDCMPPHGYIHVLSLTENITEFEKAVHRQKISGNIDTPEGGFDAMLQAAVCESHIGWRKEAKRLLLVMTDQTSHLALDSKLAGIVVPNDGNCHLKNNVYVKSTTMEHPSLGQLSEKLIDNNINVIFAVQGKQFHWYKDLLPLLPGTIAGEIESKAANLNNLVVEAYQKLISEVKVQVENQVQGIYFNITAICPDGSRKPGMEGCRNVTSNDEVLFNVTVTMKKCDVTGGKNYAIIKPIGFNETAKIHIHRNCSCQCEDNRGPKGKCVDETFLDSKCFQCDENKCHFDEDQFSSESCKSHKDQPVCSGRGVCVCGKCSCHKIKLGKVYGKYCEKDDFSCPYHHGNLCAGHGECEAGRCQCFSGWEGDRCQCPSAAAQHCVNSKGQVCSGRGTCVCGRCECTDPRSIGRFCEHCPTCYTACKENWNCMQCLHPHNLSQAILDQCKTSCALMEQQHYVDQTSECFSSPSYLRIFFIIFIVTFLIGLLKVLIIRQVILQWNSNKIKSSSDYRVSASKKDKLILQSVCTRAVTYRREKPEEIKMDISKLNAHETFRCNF
Returns: string containing the numeric result and its unit.

Problem: // fetch IC50 given entry O=C(O)C[C@H](CN1CC[C@@](F)(CCc2ccc3c(n2)NCCC3)C1)c1cccc(O[C@@H]2CCOC2)c1 [Example 3]
Result: 0.0501 µM

Problem: // fetch IC50 given entry CO[C@H](C)COc1cccc([C@H](CC(=O)O)CN2CC[C@@](F)(CCc3ccc4c(n3)NCCC4)C2)c1 [Example 5]
Result: 0.0316 µM

Problem: // fetch IC50 given entry O=C(O)C[C@H](CN1CC[C@@](F)(CCc2ccc3c(n2)NCCC3)C1)c1cccc(O[C@H]2CCOC2)c1 [Example 4]
Result: 0.0316 µM

Problem: // fetch IC50 given entry COCCOc1cc(OCCOC)cc([C@H](CC(=O)O)CN2CC[C@@](F)(CCc3ccc4c(n3)NCCC4)C2)c1 [Example 9]
Result: 0.0501 µM

Problem: // fetch IC50 given entry CO[C@@H](C)COc1cccc([C@H](CC(=O)O)CN2CC[C@@](F)(CCc3ccc4c(n3)NCCC4)C2)c1 [Example 6]
Result: 0.0398 µM

Problem: // fetch IC50 given entry COCCOc1cc(OCCF)cc(C(CC(=O)O)CN2CC[C@@](F)(CCc3ccc4c(n3)NCCC4)C2)c1 (stereo partly shown) [Example 13]
Result: 0.0316 µM

Problem: // fetch IC50 given entry O=C(O)C[C@H](CN1CC[C@@](F)(CCc2ccc3c(n2)NCCC3)C1)c1cccc(OC2COC2)c1 [Example 8]
Result: 0.0316 µM

---

biological target: αvβ3 (Homo sapiens, UniProt P05106+P06756); construct: expressed in transfected cells; host or cells: K562; assay: Cell adhesion assay, K562-αvβ3 (LAP-b1); type: cell-based; conditions: K562-αvβ3 cells, ligand LAP-b1, 2 mM MgCl2; mean; read-out: αvβ3 pIC50 (mean affinity, cell Adhesion Assay) (converted)
Sequence (P06756 31-889 limits assumed): as the sequence (P06756 31-889 limits assumed) above
Sequence (P06756 891-1048 partner limits assumed): as the sequence (P06756 891-1048 partner limits assumed) above
Sequence (P05106 27-788): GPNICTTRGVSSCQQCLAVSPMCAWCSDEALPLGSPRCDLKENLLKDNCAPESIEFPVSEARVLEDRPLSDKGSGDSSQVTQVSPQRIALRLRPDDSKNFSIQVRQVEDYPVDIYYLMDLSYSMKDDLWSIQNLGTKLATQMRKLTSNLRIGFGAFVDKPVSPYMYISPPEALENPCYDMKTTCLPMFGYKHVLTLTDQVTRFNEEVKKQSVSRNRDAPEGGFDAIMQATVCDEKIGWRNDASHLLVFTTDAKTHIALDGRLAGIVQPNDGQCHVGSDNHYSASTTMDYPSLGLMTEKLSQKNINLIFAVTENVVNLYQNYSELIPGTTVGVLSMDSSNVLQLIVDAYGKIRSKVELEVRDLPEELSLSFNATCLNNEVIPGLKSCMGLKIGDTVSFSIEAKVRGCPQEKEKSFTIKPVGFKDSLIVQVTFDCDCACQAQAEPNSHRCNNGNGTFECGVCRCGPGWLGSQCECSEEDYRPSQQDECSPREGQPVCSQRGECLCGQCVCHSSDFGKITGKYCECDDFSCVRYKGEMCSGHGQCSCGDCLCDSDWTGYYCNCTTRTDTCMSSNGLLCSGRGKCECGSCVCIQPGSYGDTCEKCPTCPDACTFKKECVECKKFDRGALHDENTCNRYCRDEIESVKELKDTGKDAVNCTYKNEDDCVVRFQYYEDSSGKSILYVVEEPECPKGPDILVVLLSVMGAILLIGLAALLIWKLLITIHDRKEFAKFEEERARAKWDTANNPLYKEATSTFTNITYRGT
Reported Metric: IC50 (µM)
Respond numerically; units are µM and should not be typed.

Problem: Give reported IC50 for `O=C(O)C[C@H](CN1CC[C@@](F)(CCc2ccc3c(n2)NCCC3)C1)c1cccc(OC2CCOCC2)c1` (αvβ3 (Homo sapiens, UniProt P05106+P06756))
Result: 0.02

Problem: Give reported IC50 for COCCOc1cc(OCCF)cc(C(CC(=O)O)CN2CC[C@@](F)(CCc3ccc4c(n3)NCCC4)C2)c1 (stereo partly shown) (αvβ3 (Homo sapiens, UniProt P05106+P06756))
Result: 0.0794

Problem: Give reported IC50 for `O=C(O)C[C@H](CN1CC[C@@](F)(CCc2ccc3c(n2)NCCC3)C1)c1cccc(OC2COC2)c1` (αvβ3 (Homo sapiens, UniProt P05106+P06756))
Result: 0.1

Problem: Give reported IC50 for `CO[C@@H](C)COc1cccc([C@H](CC(=O)O)CN2CC[C@@](F)(CCc3ccc4c(n3)NCCC4)C2)c1` (αvβ3 (Homo sapiens, UniProt P05106+P06756))
Result: 0.0631

Data origin, for the record: patent US20210206758A1
